List of ED50 values.
Test system: Rattus norvegicus
test_details: Hypoglycemic activity by lowering blood glucose in normal rats by 50% after oral administration.
Format: functional
assay_endpoint: ED50 (µmol/kg)

CC(Nc1ccccc1)C(=O)NCCc1ccc(S(=O)(=O)N2CCN(C3CCCCC3)C2=N)cc1 (stereo not drawn) :: 200
N=C1N(C2CCCCC2)CCN1S(=O)(=O)c1ccc(CCNC(=O)c2ccco2)cc1 :: 160
Cc1cnc(C(=O)NCCc2ccc(S(=O)(=O)N3CCN(C4CCCCC4)C3=N)cc2)cn1 :: 100
C[S+]([O-])CCC(=O)NCCc1ccc(S(=O)(=O)N2CCN(C3CCCCC3)C2=N)cc1 (stereo not drawn) :: 200
N=C1N(C2CCCCC2)CCN1S(=O)(=O)c1ccc(CCNC(=S)NC2CCCC2)cc1 :: 210
CCOC(=O)NCCc1ccc(S(=O)(=O)N2CCN(C3CCCCC3)C2=N)cc1 :: 170
CC1=CCC(C(=O)NCCc2ccc(S(=O)(=O)N3CCN(C4CCCCC4)C3=N)cc2)CC1 (stereo not drawn) :: 910
CC(=O)NCCc1ccc(S(=O)(=O)N2CCN(C3CCCCC3)C2=N)cc1 :: 240
COc1ccc(C(=O)NCCc2ccc(S(=O)(=O)N3CCN(C4CCCCC4)C3=N)cc2)cc1 :: 830
CC1(C(=O)NCCc2ccc(S(=O)(=O)N3CCN(C4CCCCC4)C3=N)cc2)CC=CCC1 (stereo not drawn) :: 170
C/C=C(/C)C(=O)NCCc1ccc(S(=O)(=O)N2CCN(C3CCCCC3)C2=N)cc1 :: 17
CC(N)C(=O)NCCc1ccc(S(=O)(=O)N2CCN(C3CCCCC3)C2=N)cc1 (stereo not drawn) :: 160
CN(C)C(C(=O)NCCc1ccc(S(=O)(=O)N2CCN(C3CCCCC3)C2=N)cc1)c1ccccc1 (stereo not drawn) :: 170
N=C1N(C2CCCCC2)CCN1S(=O)(=O)c1ccc(CCNC(=O)c2cnccn2)cc1 :: 480
N=C1N(C2CCCCC2)CCN1S(=O)(=O)c1ccc(CCNC(=O)C(N)c2ccccc2)cc1 (stereo not drawn) :: 76
N=C1N(C2CCCCC2)CCN1S(=O)(=O)c1ccc(CCNC(=O)CCN)cc1 :: 370
CCSCC(=O)NCCc1ccc(S(=O)(=O)N2CCN(C3CCCCC3)C2=N)cc1 :: 200
COc1ccc(Cl)cc1C(=O)NCCc1ccc(S(=O)(=O)NC(=O)NC2CCCCC2)cc1 [GLYBURIDE] :: 20
CCCC(=O)NCCc1ccc(S(=O)(=O)N2CCN(C3CCCCC3)C2=N)cc1 :: 83
N=C1N(C2CCCCC2)CCN1S(=O)(=O)c1ccc(CCNC(=O)c2cccs2)cc1 :: 170
CCCCC(=O)NCCc1ccc(S(=O)(=O)N2CCN(C3CCCCC3)C2=N)cc1 :: 120
CCCOCC(=O)NCCc1ccc(S(=O)(=O)N2CCN(C3CCCCC3)C2=N)cc1 :: 350
CCCC/N=C(\S)NCCc1ccc(S(=O)(=O)N2CCN(C3CCCCC3)C2=N)cc1 :: 210
Cc1cc(C(=O)NCCc2ccc(S(=O)(=O)N3CCN(C4CCCCC4)C3=N)cc2)no1 :: 130
N=C1N(C2CCCCC2)CCN1S(=O)(=O)c1ccc(CCNC(=O)C2CC=CCC2)cc1 (stereo not drawn) :: 15
C/N=C(\S)NCCc1ccc(S(=O)(=O)N2CCN(C3CCCCC3)C2=N)cc1 :: 240
CCCCOC(=O)NCCc1ccc(S(=O)(=O)N2CCN(C3CCCCC3)C2=N)cc1 :: 890
C=C(C)C(=O)NCCc1ccc(S(=O)(=O)N2CCN(C3CCCCC3)C2=N)cc1 :: 220
N=C1N(C2CCCCC2)CCN1S(=O)(=O)c1ccc(CCNC(=O)CNc2ccccc2)cc1 :: 320
CC(C)CC(=O)NCCc1ccc(S(=O)(=O)N2CCN(C3CCCCC3)C2=N)cc1 :: 150
CCOCC(=O)NCCc1ccc(S(=O)(=O)N2CCN(C3CCCCC3)C2=N)cc1 :: 150
C=CCCC(=O)NCCc1ccc(S(=O)(=O)N2CCN(C3CCCCC3)C2=N)cc1 :: 15
CN(C)CC(=O)NCCc1ccc(S(=O)(=O)N2CCN(C3CCCCC3)C2=N)cc1 :: 180
CC[S+]([O-])CC(=O)NCCc1ccc(S(=O)(=O)N2CCN(C3CCCCC3)C2=N)cc1 (stereo not drawn) :: 240
C=C(C(=O)NCCc1ccc(S(=O)(=O)N2CCN(C3CCCCC3)C2=N)cc1)c1ccccc1 :: 48
CC/N=C(\S)NCCc1ccc(S(=O)(=O)N2CCN(C3CCCCC3)C2=N)cc1 :: 140
CCS(=O)(=O)CC(=O)NCCc1ccc(S(=O)(=O)N2CCN(C3CCCCC3)C2=N)cc1 :: 530
